biological target: CDK9/CycT1 (Homo sapiens (Human)); assay: CDK9/CycT1 kinase assay (TR-FRET); format: biochemical; conditions: Method 1
Sequence (P50750 whole entry): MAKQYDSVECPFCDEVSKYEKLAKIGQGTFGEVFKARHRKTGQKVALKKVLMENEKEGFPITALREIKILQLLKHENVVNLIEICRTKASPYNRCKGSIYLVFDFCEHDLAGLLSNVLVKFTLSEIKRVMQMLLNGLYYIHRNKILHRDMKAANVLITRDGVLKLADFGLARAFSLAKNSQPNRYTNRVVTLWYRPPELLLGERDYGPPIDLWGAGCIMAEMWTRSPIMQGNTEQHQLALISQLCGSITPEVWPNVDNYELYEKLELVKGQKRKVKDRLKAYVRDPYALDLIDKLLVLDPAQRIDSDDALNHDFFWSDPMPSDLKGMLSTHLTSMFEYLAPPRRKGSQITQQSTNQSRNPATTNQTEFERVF
Sequence (O60563 whole entry partner): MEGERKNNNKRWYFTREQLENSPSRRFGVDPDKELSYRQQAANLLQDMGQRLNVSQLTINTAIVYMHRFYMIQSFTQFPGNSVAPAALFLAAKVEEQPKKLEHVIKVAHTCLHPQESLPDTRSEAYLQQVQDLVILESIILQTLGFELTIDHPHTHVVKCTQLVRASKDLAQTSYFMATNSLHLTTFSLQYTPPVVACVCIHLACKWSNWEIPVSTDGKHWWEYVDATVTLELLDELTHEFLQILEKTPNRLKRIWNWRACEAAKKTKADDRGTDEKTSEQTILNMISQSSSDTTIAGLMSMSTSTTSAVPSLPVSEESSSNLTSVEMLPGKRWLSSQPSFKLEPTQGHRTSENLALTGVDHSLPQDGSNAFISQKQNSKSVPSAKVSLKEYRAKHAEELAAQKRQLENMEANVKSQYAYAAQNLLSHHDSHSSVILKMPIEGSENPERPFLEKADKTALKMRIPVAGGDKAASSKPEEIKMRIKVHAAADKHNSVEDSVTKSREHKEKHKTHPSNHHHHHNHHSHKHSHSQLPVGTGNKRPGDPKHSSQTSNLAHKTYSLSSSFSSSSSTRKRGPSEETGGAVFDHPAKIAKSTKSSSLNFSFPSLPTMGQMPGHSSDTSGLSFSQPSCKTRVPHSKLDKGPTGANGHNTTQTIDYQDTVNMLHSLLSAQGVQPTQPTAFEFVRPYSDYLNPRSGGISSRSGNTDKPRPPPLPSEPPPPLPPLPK
Listing: pIC50 of selected molecules
Just the number, please; pIC50 means minus log10 of the concentration in mol/L.

Q. Provide pIC50 value for the following molecule: C#CCOc1cc(F)ccc1-c1ncnc(Nc2cccc(CS(C)(=N)=O)c2)n1 (single isomer, unassigned) [Example 78]
A. 8.05

====

molecular target: CDK9/CycT1 (Homo sapiens (Human)); assay: CDK9/CycT1 kinase assay (TR-FRET); format: biochemical; conditions: Method 1; unit cell empty (table: nM or μM)
Listing: IC50 of selected compounds
# include the unit after the value

CCS(=N)(=O)Cc1cccc(Nc2ncnc(-c3ccc(F)cc3OC)n2)c1 (single isomer, unassigned) [Example 110] ... 9 nM

Now consider the entry below.
Q. Provide IC50 value for the following compound: CCS(=N)(=O)Cc1cccc(Nc2ncnc(-c3ccc(F)cc3OC)n2)c1 (single isomer, unassigned) [Example 109]
A. 24 nM

====

assay: Equilibrium shake flask solubility assay; type: physicochemical; conditions: phosphate buffer, pH 6.5, aqueous buffer, thermodynamic from solid, water, pH 6.5, equilibrium shake flask method
Lab note: compare solubility thermodynamic at 24 h against 800 µg/mL. Equal or greater, write met. Smaller, write not met.

As a guide, the following entries are already answered.
CS(=N)(=O)Cc1cccc(Nc2ncnc(-c3cccc4c3OCCC4)n2)c1 (single isomer, unassigned) ... met
COc1cc(F)ccc1-c1ncnc(Nc2cccc(CS(C)(=O)=NC#N)c2)n1 (single isomer, unassigned) ... not met

Q. Does solubility thermodynamic at 24 h meet or surpass 800 µg/mL for C#CCOc1cc(F)ccc1-c1ncnc(Nc2cccc(CS(C)(=N)=O)c2)n1 (racemic) ?
A. not met

====

target: CDK2/CycE (Homo sapiens (Human), UniProt P24941); assay: CDK2/CycE kinase assay (TR-FRET); assay type: biochemical; details: Method 2
testReadout: log10 of IC50 (log10 of the value in nM)
Hi team, quick reminder: these entries are log10 of IC50 (nM).

Here's what some known entries look like.
CNC(=O)N=S(C)(=O)Cc1cccc(Nc2ncnc(-c3ccc(F)cc3OC)n2)c1 (single isomer, unassigned; (-)) [Example 16] ... 3.04
COc1cc(F)ccc1-c1ncnc(Nc2cc(F)cc(CS(C)(=N)=O)c2)n1 (racemic) [Example 52] ... 3.00
COc1cc(F)ccc1-c1ncnc(Nc2cc(F)cc(CS(C)(=O)=NC#N)c2)n1 (single isomer, unassigned) [Example 71] ... 2.36
CCOC(=O)N=S(C)(=O)Cc1cccc(Nc2ncnc(-c3ccc(F)cc3OC)n2)c1 (racemic) [Example 1] ... 3.34
COc1cc(F)ccc1-c1ncnc(Nc2cc(F)c(F)c(CS(C)(=N)=O)c2)n1 (racemic) [Example 106] ... 2.60
CCOC(=O)N=S(C)(=O)Cc1cccc(Nc2ncnc(-c3cccc4c3OCCO4)n2)c1 (racemic) [Example 37] ... 3.36
CCOC(=O)N=S(C)(=O)Cc1cccc(Nc2ncnc(-c3ccccc3OCc3ccc(Cl)c(Cl)c3)n2)c1 (racemic) [Example 60] ... 3.52
CS(=N)(=O)Cc1cccc(Nc2ncnc(-c3cccc4c3OCC4)n2)c1 (single isomer, unassigned) [Example 36] ... 3.46
CNC(=O)N=S(C)(=O)Cc1cccc(Nc2ncnc(-c3ccc(F)cc3OC)n2)c1 (racemic) [Example 15] ... 2.97
CCOC(=O)N=S(C)(=O)Cc1cccc(Nc2ncnc(-c3cc(F)c(F)cc3OC)n2)c1 (racemic) [Example 9] ... 2.84

Q. Provide log10 of IC50 value for the following compound: CS(=N)(=O)Cc1cccc(Nc2ncnc(-c3cccc4c3OCCO4)n2)c1 (racemic) [Example 38]
A. 3.20

Q. Provide log10 of IC50 value for the following compound: CS(=N)(=O)Cc1cccc(Nc2ncnc(-c3cccc4c3OCCC4)n2)c1 (single isomer, unassigned) [Example 31]
A. 2.83

Q. Provide log10 of IC50 value for the following compound: CS(=N)(=O)Cc1cccc(Nc2ncnc(-c3ccc(F)cc3OCc3cc(F)cc(Cl)c3)n2)c1 (racemic) [Example 94]
A. 2.36

Q. Provide log10 of IC50 value for the following compound: COc1cc(F)ccc1-c1ncnc(Nc2cc(F)cc(CS(C)(=O)=NC#N)c2)n1 (single isomer, unassigned) [Example 72]
A. 2.38

====

Listing: IC50 of selected compounds
target: CDK2/CycE (Homo sapiens (Human), UniProt P24941); assay: CDK2/CycE kinase assay (TR-FRET); format: biochemical; conditions: Method 2; unit cell empty (table: nM or μM)
# include the unit after the value

CCS(=N)(=O)Cc1cccc(Nc2ncnc(-c3ccc(F)cc3OC)n2)c1 (single isomer, unassigned) [Example 109] ... 780 nM

Now consider the entry below.
Q. // fetch IC50; item: CCS(=N)(=O)Cc1cccc(Nc2ncnc(-c3ccc(F)cc3OC)n2)c1 (single isomer, unassigned) [Example 110] ; system: CDK2/CycE (Homo sapiens (Human), UniProt P24941)
A. 1100 nM

====

test: Equilibrium shake flask solubility assay; assay type: physicochemical; settings: pH 6.5, equilibrium shake flask method
Lab note: compare Thermodynamic solubility in water at pH 6.5 against 400 mg/l. Equal or greater, write satisfied. Smaller, write not satisfied.

CNC(=O)N=S(C)(=O)Cc1cccc(Nc2ncnc(-c3ccc(F)cc3OC)n2)c1 (single isomer, unassigned; (+)) ... satisfied

Q. Does Thermodynamic solubility in water at pH 6.5 meet or surpass 400 mg/l for COc1ccc(F)cc1-c1ncnc(Nc2cccc(CS(C)(=N)=O)c2)n1 (single isomer, unassigned) ?
A. satisfied

Q. Does Thermodynamic solubility in water at pH 6.5 meet or surpass 400 mg/l for CS(=N)(=O)Cc1cccc(Nc2ncnc(-c3cccc4c3OCCO4)n2)c1 (single isomer, unassigned) ?
A. satisfied

Q. Does Thermodynamic solubility in water at pH 6.5 meet or surpass 400 mg/l for COc1cc(F)ccc1-c1ncnc(Nc2cccc(CS(C)(=O)=NC#N)c2)n1 (single isomer, unassigned) ?
A. not satisfied

Q. Does Thermodynamic solubility in water at pH 6.5 meet or surpass 400 mg/l for CS(=N)(=O)Cc1cccc(Nc2ncnc(-c3cccc4c3OCCC4)n2)c1 (single isomer, unassigned) ?
A. satisfied

====

molecular target: CDK9/CycT1 (Homo sapiens (Human)); test: CDK9/CycT1 kinase assay (TR-FRET); type: biochemical; conditions: Method 1
Listing: IC50 of selected compounds
Express the result in nM but write the number alone.

Here's what some known entries look like.
COc1ccc(F)cc1-c1ncnc(Nc2cccc(CS(C)(=N)=O)c2)n1 (single isomer, unassigned) [Example 23] ... 110
CS(=N)(=O)Cc1cccc(Nc2ncnc(-c3ccc(F)cc3OCc3ccc(F)cc3)n2)c1 (racemic) [Example 56] ... 6
COc1ccccc1-c1ncnc(Nc2cccc(CS(C)(=N)=O)c2)n1 (racemic) [Example 26] ... 35
COc1cc(F)ccc1-c1ncnc(Nc2cc(F)cc(CS(C)(=O)=NC#N)c2)n1 (single isomer, unassigned) [Example 72] ... 5

Q. // fetch IC50; item: COc1cc(F)ccc1-c1ncnc(Nc2cccc(CS(=N)(=O)C3CCOCC3)c2)n1 (racemic) ; system: CDK9/CycT1 (Homo sapiens (Human))
A. 89

Q. // fetch IC50; item: CC#CCOc1cc(F)ccc1-c1ncnc(Nc2cccc(CS(C)(=N)=O)c2)n1 (single isomer, unassigned) [Example 74] ; system: CDK9/CycT1 (Homo sapiens (Human))
A. 3

Q. // fetch IC50; item: CS(=N)(=O)Cc1cccc(Nc2ncnc(-c3cccc4c3OCCO4)n2)c1 (racemic) [Example 38] ; system: CDK9/CycT1 (Homo sapiens (Human))
A. 14

====

biological target: CDK2/CycE (Homo sapiens (Human)); experiment: CDK2/CycE kinase assay (TR-FRET); assay type: biochemical; conditions: Method 2
Listing: pIC50 of selected molecules
Just the number, please; pIC50 means minus log10 of the concentration in mol/L.

Here's what some known entries look like.
CS(=N)(=O)Cc1cccc(Nc2ncnc(-c3ccc(F)cc3OCc3ccc(F)cc3)n2)c1 (single isomer, unassigned) [Example 56.b] ... 6.25
C/C=C\COc1cc(F)ccc1-c1ncnc(Nc2cccc(CS(C)(=N)=O)c2)n1 (racemic) ... 6.10
COc1cc(F)ccc1-c1ncnc(Nc2cccc(CS(C)(=O)=NS(C)(=O)=O)c2)n1 (racemic) ... 5.74
COc1cc(F)ccc1-c1ncnc(Nc2ccc(Cl)c(CS(C)(=N)=O)c2)n1 (single isomer, unassigned) [Example 59.b] ... 5.74
CCOC(=O)N=S(C)(=O)Cc1cccc(Nc2ncnc(-c3ccccc3Oc3ccccc3)n2)c1 (racemic) ... 5.19
COc1ccc(F)cc1-c1ncnc(Nc2cccc(CS(C)(=N)=O)c2)n1 (single isomer, unassigned) [Example 23] ... 5.25

Q. Provide pIC50 value for the following molecule: Cc1cc(COc2cc(F)ccc2-c2ncnc(Nc3cccc(CS(C)(=N)=O)c3)n2)ccc1F (racemic)
A. 6.46

Q. Provide pIC50 value for the following molecule: CS(=N)(=O)Cc1cccc(Nc2ncnc(-c3ccc(F)cc3OCc3cc(F)cc(F)c3F)n2)c1 (racemic)
A. 6.30

Q. Provide pIC50 value for the following molecule: C#CCOc1cc(F)ccc1-c1ncnc(Nc2cccc(CS(C)(=N)=O)c2)n1 (single isomer, unassigned) [Example 78]
A. 6.24

Q. Provide pIC50 value for the following molecule: CS(=N)(=O)Cc1cccc(Nc2ncnc(-c3ccc(F)cc3OCc3ccccn3)n2)c1 (racemic)
A. 5.16

Q. Provide pIC50 value for the following molecule: COc1cc(F)ccc1-c1ncnc(Nc2cccc(CS(C)(=O)=NC#N)c2)n1 (single isomer, unassigned) [Example 49]
A. 6.19

Q. Provide pIC50 value for the following molecule: C#CCOc1cc(F)ccc1-c1ncnc(Nc2cccc(CS(C)(=N)=O)c2)n1 (racemic) [Example 77]
A. 5.80
